Below, each of the molecules is paired with its reported GI50 value.
# Tested on: HOP-62
# assay-method-text: NCI tumour cell line growth inhibition, 48 h
Activity calls are given as the source filed them. No stated cut-off is given here; in the data, active = GI50 up to about 1.1 µM and inactive = higher.

• CCOC(=O)c1c2cccccc2n2c(=O)cc(C)nc12 = > 100 µM (inactive)
• NC(CCCCN/C=C1/N=C(c2ccccc2)OC1=O)C(=O)O (stereo not drawn) = > 100 µM (inactive)
• O=C1c2ccccc2C2=Nc3ccncc3CN12 = > 100 µM (inactive)

Lab note: measured GI50 of CCCCC1CC(c2ccc(Cl)cc2)=NO1 (stereo not drawn) was > 100 µM (inactive)

###

# Test system: DU-145
# assay-method-text: NCI tumour cell line growth inhibition, 48 h
Active and inactive are the calls of the source. Rule as the data show it: active = GI50 up to about 1.1 µM and inactive = higher.
Classes to choose from: active, inactive

Please review the entries below; each comes with its answer.
* COc1cccc(/C=C/c2ccnc3ccccc23)c1OC | inactive
* COc1c(C)c(OCC=C(C)C)cc(CO)c1CO | inactive
* COc1ccc2cc(NC(=O)N/N=C\c3ccc(Cl)cc3)ccc2c1 | inactive
* CNC/C(Cl)=N/S(=O)(=O)c1ccc(C)cc1 | inactive

// param item: Cc1nc2c3c(ncn2n1)Oc1c(c(-c2ccccc2)nn1-c1ccccc1)C3c1ccc(Cl)cc1 (stereo not drawn) ; yields the recorded call
inactive

// param item: CNC(=O)C(C)C1C(=O)/C(=C(O)/C=C\C(C)=C\C(C)C2OC3(C)OC(C=CC34CO4)C2C)C(=O)N1C1CCC(O)C(C)O1 (stereo not drawn) ; yields the recorded call
inactive

// param item: `CC1=NN(c2nc(N)nc(C/C(N)=N/O)n2)C(C)(C)C1` ; yields the recorded call
inactive

// param item: COc1cc2c(c(OC)c1OC)-c1cccc(=O)cc1C(NC(C)=O)CC2 (stereo not drawn) ; yields the recorded call
active

// param item: `CCN(CC)CCn1c2cc3c(cc2c(=O)c2cccnc21)OCCO3` ; yields the recorded call
inactive

###

Below, each of the compounds is paired with its reported GI50 value.
# Test system: OVCAR-4
# assay-method-text: NCI tumour cell line growth inhibition, 48 h
Activity calls are given as the source filed them. Rule as the data show it: active = GI50 up to about 1.1 µM and inactive = higher.

Lab note: measured GI50 of `CSc1ccc(C(=O)C(=O)c2ccc(SC)s2)s1` was 7.24 µM (inactive)

Lab note: measured GI50 of COc1cc2c(c(OC)c1OC)-c1cccc(=O)cc1C(NC(C)=O)CC2 (stereo not drawn) was 32.4 µM (inactive)

Lab note: measured GI50 of CCCCC1CC(c2ccc(Cl)cc2)=NO1 (stereo not drawn) was > 100 µM (inactive)

###

Below, each of the molecules is paired with its reported GI50 value.
# Test system: A498
# assay-method-text: NCI tumour cell line growth inhibition, 48 h
Activity calls are given as the source filed them. Rule as the data show it: active = GI50 up to about 1.1 µM and inactive = higher.

Guide cases for GI50, answers given:
- Cc1ccc2c(c1)NC(=O)CCSSCCC(=O)N2: > 100 µM (inactive)
- COc1c(O)cc2c(c1O)C(=O)C(Cc1ccc(O)cc1)CO2 (stereo not given): > 100 µM (inactive)
- O=C1Nc2ccccc2/C1=N/Nc1ccc([N+](=O)[O-])cc1[N+](=O)[O-]: 22.4 µM (inactive)

Lab note: measured GI50 of `O=[N+]([O-])c1ccc(NN/N=N/c2ccc(-c3nc4ccccc4[nH]3)cc2)c([N+](=O)[O-])c1` was 25.6 µM (inactive)

Lab note: measured GI50 of CCCCOC(=O)C1CC[C@H]2[C@@H]3CCc4cc(OC(=O)c5cccc6c(=O)c7ccccc7[nH]c56)ccc4[C@H]3CC[C@]12C (stereo not given in full) was 8.83 µM (inactive)

Lab note: measured GI50 of `CCN(CC)CCNc1ccc2nc(C)n3c4ccc(OC)cc4c(=O)c1c23` was 3.7 µM (inactive)

Lab note: measured GI50 of `COc1cc(OC(=O)c2c(O)cc(O)c(O)c2C)cc(C)c1C(=O)Oc1cc(C)c(C(=O)O)c(O)c1` was > 100 µM (inactive)
